- assaySystem: wild type NTRK1 enzyme (Homo sapiens)
- Construct: purchased BPS Bioscience 40280
- Sequence (P04629 440-796 limits assumed): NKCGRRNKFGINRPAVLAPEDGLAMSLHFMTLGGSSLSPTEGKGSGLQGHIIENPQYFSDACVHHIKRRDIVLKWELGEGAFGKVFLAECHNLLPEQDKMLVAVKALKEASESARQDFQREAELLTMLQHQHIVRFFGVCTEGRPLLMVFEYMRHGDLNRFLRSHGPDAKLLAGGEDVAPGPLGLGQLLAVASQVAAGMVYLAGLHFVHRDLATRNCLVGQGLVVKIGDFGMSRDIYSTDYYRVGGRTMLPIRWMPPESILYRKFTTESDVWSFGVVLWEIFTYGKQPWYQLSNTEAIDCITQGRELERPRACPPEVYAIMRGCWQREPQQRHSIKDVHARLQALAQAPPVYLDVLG
- protocolSummary: NTRK1 Wild Type Assay at 1 mM ATP
- Type: biochemical
- protocolConditions: 1 mM ATP; read-out: Enz NTRK1 IC50
pIC50: −log10 of the molar value.
readoutLabel: pIC50

For CC(NC(=O)c1n[nH]c2ncnc(NC3CCC(O)C3O)c12)c1cc(F)ccc1F (centres unmarked) [Compound 34] on wild type NTRK1 enzyme (Homo sapiens), measured pIC50 was 7.00 to 8.00

For `O=C(c1n[nH]c2ncnc(N[C@H]3[C@H](O)[C@H](O)[C@@H]4C[C@@H]43)c12)N1C[C@@H](F)C[C@@H]1c1cc(F)ccc1OC(F)F` on wild type NTRK1 enzyme (Homo sapiens), measured pIC50 was > 8.00

For `O=C(c1n[nH]c2ncnc(N[C@@H]3CC[C@@H](O)[C@H]3O)c12)N1C[C@@H](F)C[C@@H]1c1cc(F)cc(F)c1` on wild type NTRK1 enzyme (Homo sapiens), measured pIC50 was > 8.00

For `O=C(c1n[nH]c2ncnc(N[C@@H]3CC[C@@H](O)[C@H]3O)c12)N1C[C@@H](F)C[C@@H]1c1cc(F)ccc1Cl` on wild type NTRK1 enzyme (Homo sapiens), measured pIC50 was > 8.00

For `O=C(c1n[nH]c2ncnc(N[C@@H]3CCC[C@H]3O)c12)N1C[C@@H](F)C[C@@H]1c1cc(F)cnc1Cl` on wild type NTRK1 enzyme (Homo sapiens), measured pIC50 was > 8.00

For O=C(NCc1cc(F)ccc1F)c1n[nH]c2ncnc(N[C@@H]3C[C@@H](F)C[C@H]3O)c12 (relative stereo) on wild type NTRK1 enzyme (Homo sapiens), measured pIC50 was 7.00 to 8.00

For `O=C(c1n[nH]c2ncnc(N[C@@H]3CCOC[C@H]3O)c12)N1C[C@@H](F)C[C@@H]1c1ccccc1` on wild type NTRK1 enzyme (Homo sapiens), measured pIC50 was 6.00 to 7.00

For `O=C(NCc1cc(F)cc(F)c1F)c1n[nH]c2ncnc(N[C@@H]3CC[C@@H](O)[C@H]3O)c12` on wild type NTRK1 enzyme (Homo sapiens), measured pIC50 was 7.00 to 8.00

For O=C(NCc1cc(F)ccc1F)c1n[nH]c2ncnc(NC3CC(F)CC3O)c12 (centres unmarked) [Compound 16] on wild type NTRK1 enzyme (Homo sapiens), measured pIC50 was 6.00 to 7.00

For `COc1c(F)cc(F)cc1[C@H]1C[C@H](F)CN1C(=O)c1n[nH]c2ncnc(N[C@H]3[C@H](O)[C@H](O)[C@@H]4C[C@@H]43)c12` on wild type NTRK1 enzyme (Homo sapiens), measured pIC50 was > 8.00

For `O=C(NCc1cc(F)ccc1Cl)c1n[nH]c2ncnc(N[C@@H]3CC[C@@H](O)[C@H]3O)c12` on wild type NTRK1 enzyme (Homo sapiens), measured pIC50 was 7.00 to 8.00

For `CN(Cc1cccnc1F)C(=O)c1n[nH]c2ncnc(N[C@@H]3CC[C@@H](O)[C@H]3O)c12` on wild type NTRK1 enzyme (Homo sapiens), measured pIC50 was 6.00 to 7.00

For `N#C[C@H]1C[C@@H](O)[C@H](Nc2ncnc3[nH]nc(C(=O)N4C[C@@H](F)C[C@@H]4c4cncc(F)c4)c23)C1` on wild type NTRK1 enzyme (Homo sapiens), measured pIC50 was > 8.00

For O=C(NCc1cc(F)ccc1F)c1n[nH]c2ncnc(NC3CC(O)CC3O)c12 (centres unmarked) [Compound 12] on wild type NTRK1 enzyme (Homo sapiens), measured pIC50 was 6.00 to 7.00
